# System: PC-3 prostate
# assay.explanation: NCI tumour cell line growth inhibition, 48 h
Recorded TGI, one value per entry.

> print(dat)
                                     smiles  quantity.name  recorded.measurement
1  COc1cc2ncn(-c3cc(OCc4ccccc4C(F)(F)F)c(C(=O)N(C)C)s3)c2cc1OC            TGI               > 25 µM

-- ask Any idea what TGI was measured for Cn1c2ccccc2c2c3c(c4c5ccccc5n(C)c4c21)C(=O)NC3=O ?
-- reply > 77.5 µM

-- ask One more molecule: Cc1ccc(/C=N/n2c(-c3ccc(C)cc3)n[nH]c2=O)cc1
-- reply > 100 µM

* * *

# Tested on: SK-MEL-28 melanoma
# assay.explanation: NCI tumour cell line growth inhibition, 48 h
Recorded TGI, one value per entry.

Previously resolved entries follow.
molecule	target.system	TGI
CCOC(=O)Nc1nc2ccc(OC)cc2s1	SK-MEL-28 melanoma	> 100 µM
CC[C@H](Nc1ncnc2nc[nH]c12)c1nc2cccc(F)c2c(=O)n1-c1ccccc1	SK-MEL-28 melanoma	> 100 µM
COC(=O)CCC1=C(CC(=O)OC)C(C)(OC)N=C1NC(=O)OCc1ccccc1 (stereo unspecified)	SK-MEL-28 melanoma	> 100 µM

-- ask Any idea what TGI was measured for Cc1ccc(S(=O)(=O)OC2C(O)C(O)OC2C(c2cc(O)c3c(c2O)C(=O)c2ccccc2C3=O)c2cc(O)c3c(c2O)C(=O)c2ccccc2C3=O)cc1 (stereo unspecified) ?
-- reply > 10 µM

-- ask One more molecule: NC(=S)/N=C(/c1nc2ccc(Cl)cc2[nH]c1=O)C(O)c1ccccc1Cl (stereo unspecified)
-- reply > 100 µM

-- ask One more molecule: CCP(=O)(CC)C(Cl)Cl
-- reply > 100 µM

-- ask One more molecule: NS(=O)(=O)c1ccc(-n2nc3c(c2-c2ccc(Cl)cc2)Cc2ccccc2-3)cc1
-- reply 35 µM

-- ask One more molecule: C#C/C=C\CCCC/C=C\C#CC#CCCCC#CC#C[C@H](COS(=O)(=O)O)OS(=O)(=O)O
-- reply > 100 µM

-- ask One more molecule: O=CNNC(=O)Nc1cccc2ccccc12
-- reply > 100 µM

-- ask One more molecule: C/C(=N\N=C(\N)SB(F)F)c1ccc2ccccc2c1
-- reply > 100 µM

* * *

Recorded GI50, one value per entry.
# Test system: EKVX NSCLC
# assay.explanation: NCI tumour cell line growth inhibition, 48 h

> print(dat)
                                   compound  target.system  recorded.measurement
1  CCCCCCCCCCCCCCCCCC1=NC(C)(C)CN1CC(C)O (stereo not drawn)     EKVX NSCLC               13.7 µM

-- ask Any idea what GI50 was measured for COc1ccccc1C#Cc1ccccc1C#CCCCCO ?
-- reply 15.9 µM

-- ask One more compound: Cn1c(C(=O)c2ccncc2)cc2ccccc21
-- reply 78.1 µM

* * *

# Test system: LOX IMVI melanoma
# assay.explanation: NCI tumour cell line growth inhibition, 48 h
Recorded TGI, one value per entry.

Previously resolved entries follow.
> print(dat)
                                   compound  recorded.measurement
1  COC(=O)C1Cc2cc3c(cc2C1=O)CCCC3 (stereo not given)              > 100 µM
2   Cc1nc(-c2ccccc2)n2nc(NCCCN3CCOCC3)ncc12               > 25 µM
3  COc1ccc(NC(=O)CSC2=C(Nc3cccc(Br)c3)C(=O)N(Cc3ccccc3)C2=O)cc1Cl              > 100 µM
4  COC(=O)/C=C(C)/C=C/C1OC(C)OCC1O (stereo not given)              > 100 µM

-- ask Any idea what TGI was measured for CN(Cc1cnc2nc(N)nc(N)c2n1)c1ccc(C(=O)N[C@@H](CCC(=O)O)C(=O)O)cc1 ?
-- reply > 250 µM

* * *

Recorded TGI, one value per entry.
# Test system: SNB-75 CNS
# assay.explanation: NCI tumour cell line growth inhibition, 48 h

-- ask Any idea what TGI was measured for O=C(O)Cc1ccc(Nc2nc3cc(C(F)(F)F)ccc3nc2C(=O)O)cc1 ?
-- reply > 100 µM

-- ask One more molecule: COC(=O)c1ccc(/C=C2\Oc3ccccc3C2=O)cc1
-- reply > 100 µM

-- ask One more molecule: COc1cc2ncn(-c3cc(OCc4ccccc4C(F)(F)F)c(C(=O)N(C)C)s3)c2cc1OC
-- reply > 25 µM

* * *

# Tested on: SF-295 CNS
# assay.explanation: NCI tumour cell line growth inhibition, 48 h
Recorded TGI, one value per entry.

> print(dat)
                                    compound  target.system  quantity.name  recorded.measurement
 1  CCN1CCC(O)(c2ccc(Oc3ccc(F)cc3)cc2)C(C(=O)c2ccc(Oc3ccc(F)cc3)cc2)C1 (centres undefined)     SF-295 CNS            TGI               29.3 µM
 2  O=C1CC2C(=O)c3ccccc3CC2c2ccccc21 (centres undefined)     SF-295 CNS            TGI              > 100 µM
 3  CCN(CC)CCCNc1ccc2nc(C)n3c4ccc(O)cc4c(=O)c1c23     SF-295 CNS            TGI               19.6 µM
 4  CC(=O)OCC1OC(n2cc(F)c(=O)[nH]c2=O)C(NC(=O)OCc2ccccc2)C(OC(C)=O)C1OC(C)=O (centres undefined)     SF-295 CNS            TGI              > 100 µM
 5  COc1cc(OC)c(C(=O)/C=C/c2cc3c(cc2OCc2ccccc2)OC(C)(C)CC3)cc1CC=C(C)C     SF-295 CNS            TGI               15.8 µM
 6  O=C(Cc1nc2ccccc2c(=O)n1-c1ccccc1Cl)c1ccncc1     SF-295 CNS            TGI              > 100 µM
 7  O=C(O)CCC(=O)c1ccc2c(c1)C(C(=O)O)CC2 (centres undefined)     SF-295 CNS            TGI              > 100 µM
 8  O=S(=O)(Nc1nc2ccccc2nc1Nc1ccc2ccccc2c1)c1ccccc1     SF-295 CNS            TGI               47.3 µM
 9  CC1=C(C(=O)CC(=O)C(=O)Nc2cc(C)ccc2C)Sc2ccccc2N1     SF-295 CNS            TGI              > 100 µM
10  COc1cc2ncn(-c3cc(OCc4ccccc4C(F)(F)F)c(C(=O)N(C)C)s3)c2cc1OC     SF-295 CNS            TGI               > 25 µM

-- ask Any idea what TGI was measured for Brc1ccc(C[P+]2(c3ccccc3)CCCCC2)cc1 ?
-- reply > 100 µM

-- ask One more compound: CN(C)CCNc1ccc(CO)c2sc3ccc(O)cc3c(=O)c12
-- reply 12.1 µM

-- ask One more compound: C=CCNc1nc2c(s1)C(=O)c1ccccc1C2=O
-- reply 28.2 µM

-- ask One more compound: O=C(O)CCS/C(=C\C(SCCC(=O)O)c1ccc(Cl)cc1)c1ccc(Cl)cc1 (centres undefined)
-- reply > 100 µM

-- ask One more compound: N#CN/C(N)=N/C/N=C(\N)NC#N
-- reply > 100 µM

* * *

# Test system: K-562 leukemia
# assay.explanation: NCI tumour cell line growth inhibition, 48 h
Recorded TGI, one value per entry.

Previously resolved entries follow.
> print(dat)
                                   compound  quantity.name  recorded.measurement
1  CC(C)Nc1cc(-c2c[nH]c(C(=O)N[C@H](CO)c3cccc(Cl)c3)c2)c(Cl)cn1            TGI               > 10 µM
2  CN(C(=O)Cc1ccccc1)n1cnn(CC(=O)OC(C)(C)C)c1=S            TGI               > 10 µM
3          CCC[CH2][Sn]([Cl])([Cl])[CH2]CCC            TGI               1.24 µM
4  O=C(/C=C/C12c3ccccc3C(c3ccccc31)C1C(=O)NC(=O)C12)c1ccc(Cl)cc1Cl (stereo unspecified)            TGI               10.9 µM
5  Cc1cc2/c(=C\c3ccc(N(C)C)cc3)c3ccccc3n2[n+]1C            TGI               21.4 µM

-- ask Any idea what TGI was measured for CC(C)(C)OC(=O)NC1CC2(C=C(Br)C(=O)C(Br)=C2)OC1=O (stereo unspecified) ?
-- reply 13.5 µM

Data origin: PubChem BioAssay (NCI)
